# assay_method_text: NCI Yeast Anticancer Drug Screen. Data for the rad50EPP+ strain (AID 151);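 further: 0% = growth of vehicle-treated control cultures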
# reported_conditions: S. cerevisiae rad50 mutant strain, at 1.2 µM
The panel holds about 79,000 compounds, 15% with a hit somewhere; the sample as a whole holds those more often. Calls of active or inactive are those of the source. No stated cut-off is given here; in the data, active means growth inhibition above about 70%; inactive means the rest.
Result category, one only: yes (active), no (inactive)

CC[C@@]1(O)C(=O)OCc2c1cc1n(c2=O)Cc2cc3c(NC(=O)CN)cccc3nc2-1 = no
CCC1(O)C(=O)OCc2c1cc1n(c2=O)Cc2cc3cc(Cl)ccc3nc2-1 (stereo not given) = yes
O=C1c2ccccc2C(=O)C(Cl)C1Cl (stereo not given) = no
COc1cc(C2c3cc4c(cc3[C@@H](Nc3ccc(N)cc3)C3COC(=O)[C@H]23)OCO4)cc(OC)c1O (stereo not given in full) = no

Consider the additional compound presented here.
Ask: Please indicate how the test categorized CC1(Cl)CC(C)(/C=C/Cl)C(Cl)CC1Cl (stereo not given) .
Reply: no

---

Below, each of the molecules is paired with its reported growth inhibition value.
# assay_method_text: NCI Yeast Anticancer Drug Screen. Data for the mlh1 strain (AID 171);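 further: 0% = growth of vehicle-treated control cultures of the same strain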
# reported_conditions: S. cerevisiae mlh1 strain growth inhibition; at 33.0 µM; hits give high values
This is part of a sample that, as a whole, favours compounds with a hit. Of some 79,000 tested, about 15% had one in any assay.
All answers are understood in %, so give the number only.

CSC(=Nc1ccccc1)N(c1ccccc1)c1nc(=[N+](C)C)ss1 = 99
Oc1cccnc1[Se] = 98
CC1CC(Br)C(=O)O1 (configuration not stated) = 79

Ask: Tell me the measured growth inhibition of CCOP(=O)(CC(C)P(=O)(OCC)OCC)OCC.C[CH2][Sn]([Cl])([Cl])[CH2]C (configuration not stated) , please.
Reply: 69

Ask: Tell me the measured growth inhibition of CC1CC(C)CC(C)C(O)/C(C#N)=C/C=C/CC(C2CCCC2C(=O)O)OC(=O)CC(O)C(C)C1 (configuration not stated) , please.
Reply: 98

---

# assay_method_text: NCI Yeast Anticancer Drug Screen. Data for the rad50EPP+ strain (AID 151);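 further: 0% = growth of vehicle-treated control cultures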
# reported_conditions: S. cerevisiae rad50 mutant strain, at 1.2 µM, hits give high values
About 79,000 compounds went through this panel and 15% of them were active in at least one assay; those are over-represented in the sample as a whole.
value_kind: growth inhibition (%)
All answers are understood in %, so give the number only.

COC(=O)C1=C(C(=O)OC)C2OC1c1cc3ccccc3cc12 = 34

Ask: Tell me the measured growth inhibition of O=[N+]([O-])O.[NH-]C1CCCCC1[NH-].[NH-]C1CCCCC1[NH-].[NH-]C1CCCCC1[NH-].[OH-].[OH-].[OH-].[Pt+4].[Pt+4].[Pt+4] (stereo not drawn) , please.
Reply: -28

Ask: Tell me the measured growth inhibition of Oc1cccc2nc3ccccc3nc12 , please.
Reply: -47

---

Below, each of the compounds is paired with its reported growth inhibition value.
# assay_method_text: NCI Yeast Anticancer Drug Screen. Data for the sgs1 mgt1 strain (AID 161);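 further: 0% = growth of cultures given vehicle only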
# reported_conditions: S. cerevisiae sgs1 mgt1 strain, at 50.0 µM (retest, dose inferred, filed as 5.0), hits give high values
About 79,000 compounds went through this panel and 15% of them were active in at least one assay; those are over-represented in the sample as a whole.
All answers are understood in %, so give the number only.

Solved entries:
CC(=O)C(CN(C)C)C(c1ccccc1)c1c(O)c2ccccc2oc1=O (stereo not drawn) = 4
O=C(CCl)Nc1cccc(Cl)c1 = 68
ClC1=NSSC1(Cl)Cl = 99
CCC[CH2][Sn]([Cl])([Cl])[CH2]CCC = 96

# evaluate next
Ask: Tell me the measured growth inhibition of CN(C)CCC(C(=O)C(Br)Br)(c1ccccc1)c1ccccc1 , please.
Reply: 99

---

# assay_method_text: NCI Yeast Anticancer Drug Screen. Data for the mec2-1 strain (AID 157)
# reported_conditions: S. cerevisiae mec2-1 strain, at 50.0 µM (retest, dose inferred, filed as 5.0)
About 79,000 compounds went through this panel and 15% of them were active in at least one assay; those are over-represented in the sample as a whole. Calls of active or inactive are those of the source. No stated cut-off is given here; in the data, active means growth inhibition above about 70%; inactive means the rest.
Result category, one only: active, inactive

Example entries and their recorded answers appear below.
Fc1cccc(C2N(Cc3ccc(N(CCCl)CCCl)cc3Cl)CCCN2Cc2ccc(N(CCCl)CCCl)cc2Cl)c1 = active
CCC1CCCCN1CC(C(C)=O)C(c1ccccc1)c1c(O)c2ccccc2oc1=O (stereo not given) = inactive
ClCCN(CCCl)CCN1c2ccccc2Sc2ccc(Cl)cc21 = active
CCCCN(CCCC)CCc1ccc(OC(=O)c2ccc(N)cc2)cc1 = active
CC(=O)Oc1ccc(N=C2C=C(Cl)C(=O)C(Cl)=C2)cc1 = inactive

Ask: Please indicate how the test categorized CC(C)(c1ccccc1)c1ccc(O)cc1 .
Reply: active

---

# assay_method_text: NCI Yeast Anticancer Drug Screen. Data for the mec2-1 strain (AID 157)
# reported_conditions: S. cerevisiae mec2-1 strain, at 3.7 µM
The panel holds about 79,000 compounds, 15% with a hit somewhere; the sample as a whole holds those more often. Active and inactive are the calls of the source. No stated cut-off is given here; in the data, active means growth inhibition above about 70%; inactive means the rest.
Result category, one only: active, inactive

Ask: Please indicate how the test categorized CN(N=O)C(=O)NNC(=O)N(C)N=O .
Reply: inactive

Ask: Please indicate how the test categorized Cc1ccc2nc3sc(=O)sc3nc2c1 .
Reply: inactive

Ask: Please indicate how the test categorized CCCCCCCCCC[Se]C#N .
Reply: inactive

Ask: Please indicate how the test categorized NC1=NCC(c2ccc(Cl)cc2)O1 (stereo not given) .
Reply: inactive

Ask: Please indicate how the test categorized CC[C@](O)(C(=O)O)c1cc2n(c(=O)c1CO)Cc1cc3ccccc3nc1-2 .
Reply: active

---

Below, each of the compounds is paired with its reported growth inhibition value.
# assay_method_text: NCI Yeast Anticancer Drug Screen. Data for the mgt1 strain (AID 153)
# reported_conditions: S. cerevisiae mgt1 mutant growth inhibition; at 11.0 µM; hits give high values
The panel holds about 79,000 compounds, 15% with a hit somewhere; the sample as a whole holds those more often.
All answers are understood in %, so give the number only.

Solved entries:
O=C(/C=C(\c1ccccc1)N1CC1)c1ccccc1 = -4
C/C(=N\NC(N)=O)C(CN1CCOCC1)C(c1ccccc1)c1c(O)c2ccccc2oc1=O (stereo not given) = -3
NC1=NCC(c2ccc(Cl)cc2)O1 (stereo not given) = -2
CSc1ccccc1[As](C)C = 75
CC1(Cl)CC(C)(/C=C/Cl)C(Cl)CC1Cl (stereo not given) = 3
C[C@]12CCC(=O)C=C1CC[C@@H]1C2CC[C@@]2(C)C1CC[C@@H]2OC(=O)C12OC1CCC2=O (stereo not given in full) = 27
C=C[C@H]1CN2CC[C@H]1C[C@@H]2[C@@H](O)c1ccnc2ccccc12 = 3
CC1=C2C(=C[C@@](C)(CO)[C@@H]2O)C(=O)[C@](C)(O)C12CC2 = 0

Ask: Tell me the measured growth inhibition of CCCN(CCC)c1c([N+](=O)[O-])cc(S(N)(=O)=O)cc1[N+](=O)[O-] , please.
Reply: -11

Ask: Tell me the measured growth inhibition of S=C1NC2(CCCCC2)NC12CCCCC2 , please.
Reply: 5

Ask: Tell me the measured growth inhibition of O=C(O)C1C2CCC(C2)C1c1ccccc1 (stereo not given) , please.
Reply: -4

Ask: Tell me the measured growth inhibition of O=c1oc2ccccc2c(O)c1C(c1ccc2c(c1)Cc1ccccc1-2)c1c(O)c2ccccc2oc1=O , please.
Reply: 31

Ask: Tell me the measured growth inhibition of Oc1cccnc1[Se] , please.
Reply: -2

Ask: Tell me the measured growth inhibition of Oc1cccc2cccnc12 , please.
Reply: 96

Ask: Tell me the measured growth inhibition of O=S(=O)(O)/C(=C\c1ccccc1)c1ccccc1 (tested in a mixture with another compound) , please.
Reply: -1

Ask: Tell me the measured growth inhibition of Nc1nc(N)c2c(Cl)c(CNc3ccc(C(=O)NC(CC(=O)O)C(=O)O)cc3)ccc2n1 (stereo not given) , please.
Reply: -2

Ask: Tell me the measured growth inhibition of CS(=O)(=O)OCCN(CCOS(C)(=O)=O)c1ccc(C=O)cc1 , please.
Reply: 32

Ask: Tell me the measured growth inhibition of CC(Cc1ccccc1)N(C)Cc1nc(C2CCC([N+](=O)[O-])O2)no1 (stereo not given) , please.
Reply: 13

Ask: Tell me the measured growth inhibition of CCC(=O)OC1CCn2c1nc1c2C(=O)C(C)=C(N2CC2)C1=O (stereo not given) , please.
Reply: -1

Ask: Tell me the measured growth inhibition of CC[C@@]1(O)C(=O)OCc2c1cc1n(c2=O)Cc2cc3c(NC(=O)CN)cccc3nc2-1 , please.
Reply: 0

Ask: Tell me the measured growth inhibition of COC1C(O)C(C)OC(OC2C(Oc3cccc4c(O)c5c(=O)oc6ccc(C)c7c(=O)oc(c34)c5c67)OC(C)C(O)C2O)C1O (stereo not given) , please.
Reply: -4

Ask: Tell me the measured growth inhibition of COC(=O)c1c(C)ccc2c(O)c3c(cc12)C(=O)c1c2c(cc(O)c1C3=O)C1(C)OC(C)(O2)C(O)C(N(C)C)C1O (stereo not given) , please.
Reply: 23

Ask: Tell me the measured growth inhibition of COc1cc([C@@H]2c3cc4c(cc3C[C@@H]3COC(=O)C32)OCO4)cc(OC)c1O (stereo not given in full) , please.
Reply: 53

Ask: Tell me the measured growth inhibition of O=C1NC(=S)NC(=O)C1=Cc1ccc([N+](=O)[O-])o1 , please.
Reply: 41

Ask: Tell me the measured growth inhibition of O=[N+]([O-])O.[NH-]C1CCCCC1[NH-].[NH-]C1CCCCC1[NH-].[NH-]C1CCCCC1[NH-].[OH-].[OH-].[OH-].[Pt+4].[Pt+4].[Pt+4] (stereo not given) , please.
Reply: -19
